Please respond with reported EC50 for every item in the list.
target: human 5-HT4(a) (Homo sapiens, UniProt Q13639); test: Evaluation of agonistic activity in CHO-K1 cells expressing human 5-HT4(a) (GeneBlAzer HTR4-CRE-bla, beta-lactamase reporter); conditions: 5 hours incubation, 8 concentrations
Sequence (Q13639 1-387 isoform Q13639-2): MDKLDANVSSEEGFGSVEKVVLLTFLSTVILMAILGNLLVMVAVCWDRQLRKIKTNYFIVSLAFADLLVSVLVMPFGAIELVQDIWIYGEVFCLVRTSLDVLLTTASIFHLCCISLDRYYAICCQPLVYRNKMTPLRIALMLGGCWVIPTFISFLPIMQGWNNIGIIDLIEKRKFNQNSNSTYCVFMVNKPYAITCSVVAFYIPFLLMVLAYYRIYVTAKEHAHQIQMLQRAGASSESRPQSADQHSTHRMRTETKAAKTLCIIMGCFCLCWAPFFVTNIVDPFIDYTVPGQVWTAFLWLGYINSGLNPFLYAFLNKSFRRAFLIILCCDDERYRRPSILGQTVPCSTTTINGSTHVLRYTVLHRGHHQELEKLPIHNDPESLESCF
Structures can show the parent of a compound that is named as a salt.
Please format your answer as a value with the unit trailing.

// query Please indicate EC50 recorded for CCN[C@H]1CCN(c2nc(Nc3cc(N)cc(C#N)c3)nc3ccccc23)C1 [Example 141]
// result 10 pM

// query Please indicate EC50 recorded for CC(=O)N[C@H]1CCN(c2nc(Nc3cc(N)cc(C#N)c3)nc3cc(F)ccc23)C1 [Example 85, hydrochloride]
// result 40 pM

// query Please indicate EC50 recorded for CC(=O)N[C@H]1CCN(c2nc(Nc3cc(N)cc(C#N)c3)nc3cc(C(F)(F)F)ccc23)C1 [Example 28]
// result 390 pM

// query Please indicate EC50 recorded for CC(=O)N[C@@H]1CCCN(c2nc(Nc3ccc(N)c([N+](=O)[O-])c3)nc3c2CCC3)C1 [Example 198, hydrochloride]
// result 10 pM
